The measured values listed here are drawn from the supplement of paper PMC6555819.

# Tested on: PPARg:RXRa 30nM:10nM, anti-RXR (NR concentration 30 nM, RXRa partner concentration 10 nM)
# assay-remarks: PBM binding z-score (relative to random genomic background probes); higher = stronger binding; sequences stand for … in GC…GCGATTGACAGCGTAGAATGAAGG
Recorded PBM binding z-score, one value per entry.
experimental-endpoint: PBM binding z-score

- chain: "CTAACTAGGTCAGAACAGGACAGTGAAGGATGAT"
  quantitative-readout: 2.43
- chain: "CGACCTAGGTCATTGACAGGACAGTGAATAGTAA"
  quantitative-readout: 0.782
- chain: "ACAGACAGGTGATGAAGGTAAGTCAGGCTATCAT"
  quantitative-readout: -0.266
- chain: "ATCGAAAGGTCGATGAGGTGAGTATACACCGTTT"
  quantitative-readout: 1.1
- chain: "CCTTACGGGTCAAGGTTAGAGCACGGGTGGTACG"
  quantitative-readout: 1.86
- chain: "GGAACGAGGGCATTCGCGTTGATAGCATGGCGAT"
  quantitative-readout: -0.361
- chain: "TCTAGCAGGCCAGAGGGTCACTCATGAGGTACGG"
  quantitative-readout: 2.19
- chain: "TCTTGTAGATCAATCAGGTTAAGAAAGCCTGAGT"
  quantitative-readout: 2.82
- chain: "CCTAGTTGGTCAGGAGGTAACACACCGGATATGA"
  quantitative-readout: 0.0146
- chain: "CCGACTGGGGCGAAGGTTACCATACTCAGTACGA"
  quantitative-readout: 5.36
- chain: "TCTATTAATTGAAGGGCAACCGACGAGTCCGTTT"
  quantitative-readout: 3.93
- chain: "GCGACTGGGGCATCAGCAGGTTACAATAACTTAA"
  quantitative-readout: -0.192
- chain: "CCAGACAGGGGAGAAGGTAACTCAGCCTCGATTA"
  quantitative-readout: -0.552
- chain: "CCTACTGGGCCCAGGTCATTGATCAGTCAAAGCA"
  quantitative-readout: 0.0346
- chain: "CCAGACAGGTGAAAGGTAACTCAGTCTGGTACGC"
  quantitative-readout: 4.26
- chain: "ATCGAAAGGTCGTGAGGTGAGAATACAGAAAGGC"
  quantitative-readout: 1.99
- chain: "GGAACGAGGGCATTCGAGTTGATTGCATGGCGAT"
  quantitative-readout: -0.244
- chain: "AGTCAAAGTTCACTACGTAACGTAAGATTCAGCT"
  quantitative-readout: 2.81
- chain: "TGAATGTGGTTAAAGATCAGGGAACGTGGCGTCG"
  quantitative-readout: 1.45
- chain: "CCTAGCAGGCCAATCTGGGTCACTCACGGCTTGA"
  quantitative-readout: -0.256
- chain: "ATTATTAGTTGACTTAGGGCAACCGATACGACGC"
  quantitative-readout: 0.719
- chain: "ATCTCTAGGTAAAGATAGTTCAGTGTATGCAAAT"
  quantitative-readout: 0.59
- chain: "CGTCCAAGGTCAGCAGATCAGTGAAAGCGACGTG"
  quantitative-readout: 0.511
- chain: "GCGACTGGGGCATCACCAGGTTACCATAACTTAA"
  quantitative-readout: -0.379
- chain: "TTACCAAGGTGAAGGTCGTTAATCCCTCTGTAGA"
  quantitative-readout: 1.82
- chain: "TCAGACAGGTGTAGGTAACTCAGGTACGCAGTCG"
  quantitative-readout: 3.54
- chain: "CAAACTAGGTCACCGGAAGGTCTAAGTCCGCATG"
  quantitative-readout: 4.98
- chain: "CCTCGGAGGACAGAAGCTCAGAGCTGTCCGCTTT"
  quantitative-readout: -1.52
- chain: "CCTAGTTGGTCAAGGTCACAGACGCTATAGGTAC"
  quantitative-readout: 1.54
- chain: "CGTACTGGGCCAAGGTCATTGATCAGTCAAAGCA"
  quantitative-readout: 1.79
- chain: "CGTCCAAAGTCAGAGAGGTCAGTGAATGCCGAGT"
  quantitative-readout: -0.0025
- chain: "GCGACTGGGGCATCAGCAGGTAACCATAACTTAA"
  quantitative-readout: -0.0973
- chain: "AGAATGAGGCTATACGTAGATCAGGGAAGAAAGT"
  quantitative-readout: 0.101
- chain: "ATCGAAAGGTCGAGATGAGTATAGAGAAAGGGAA"
  quantitative-readout: 0.989
- chain: "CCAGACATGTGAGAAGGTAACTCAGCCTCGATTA"
  quantitative-readout: -0.305
- chain: "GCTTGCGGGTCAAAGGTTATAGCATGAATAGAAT"
  quantitative-readout: 9.43
- chain: "TCTTGTTGATCAAGCAGGTTAAGAAAGCCTGAGT"
  quantitative-readout: 2.49
- chain: "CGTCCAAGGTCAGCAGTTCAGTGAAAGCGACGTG"
  quantitative-readout: 0.482
- chain: "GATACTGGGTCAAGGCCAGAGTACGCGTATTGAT"
  quantitative-readout: 2.7
- chain: "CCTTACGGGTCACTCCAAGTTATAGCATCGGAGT"
  quantitative-readout: 1.12
- chain: "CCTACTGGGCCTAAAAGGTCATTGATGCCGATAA"
  quantitative-readout: 0.898
- chain: "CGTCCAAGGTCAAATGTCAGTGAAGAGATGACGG"
  quantitative-readout: 3.35
- chain: "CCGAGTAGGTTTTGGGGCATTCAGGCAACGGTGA"
  quantitative-readout: -0.147
- chain: "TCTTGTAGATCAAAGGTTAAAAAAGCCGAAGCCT"
  quantitative-readout: 7.69
- chain: "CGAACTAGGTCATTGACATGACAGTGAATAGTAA"
  quantitative-readout: 3.97
- chain: "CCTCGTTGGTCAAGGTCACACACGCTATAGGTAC"
  quantitative-readout: 0.974
- chain: "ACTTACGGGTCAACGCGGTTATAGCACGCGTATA"
  quantitative-readout: 1.84
- chain: "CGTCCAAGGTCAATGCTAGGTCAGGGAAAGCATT"
  quantitative-readout: 1.47
- chain: "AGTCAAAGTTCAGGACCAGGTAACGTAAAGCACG"
  quantitative-readout: 2.16
- chain: "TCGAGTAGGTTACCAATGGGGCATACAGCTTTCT"
  quantitative-readout: 1.27
- chain: "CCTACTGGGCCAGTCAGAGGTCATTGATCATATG"
  quantitative-readout: 0.876
